- System: CCRIS mutagenicity, Ames/micronucleus/aberration tests
- ASSAY NOTES: CCRIS mutagenicity studies
- DETAILS: Test System: AMES SALMONELLA TYPHIMURIUM; Strain/Indicator: TA97; Metabolic Activation: HAMSTER, LIVER, S-9, AROCLOR 1254 (30%); Method: PREINCUBATION
Active and inactive are the calls of the source. How the calls were made is not given here.
Classes used: active, inactive

>  <COMPOUND>
CCCCCCCCCCCCCCCCC1CO1 (stereo unspecified)

>  <QUALITATIVE LABEL>
inactive

$$$$
>  <COMPOUND>
CCCCOCCOCCSC#N

>  <QUALITATIVE LABEL>
inactive

$$$$
>  <COMPOUND>
N#CC(O)c1ccccc1 (stereo unspecified)

>  <QUALITATIVE LABEL>
inactive

$$$$
>  <COMPOUND>
CCCSC(=O)Cl

>  <QUALITATIVE LABEL>
inactive

$$$$
>  <COMPOUND>
CCCCCCCCCCCC(=O)[O][Sn]([CH2]CCC)([CH2]CCC)[O]C(=O)CCCCCCCCCCC

>  <QUALITATIVE LABEL>
inactive

$$$$
>  <COMPOUND>
Clc1cccc2ccccc12

>  <QUALITATIVE LABEL>
active

$$$$
>  <COMPOUND>
CC1CCCC1

>  <QUALITATIVE LABEL>
inactive

$$$$
>  <COMPOUND>
C=CC(=O)OCCCCCCOC(=O)C=C

>  <QUALITATIVE LABEL>
inactive

$$$$
>  <COMPOUND>
CC(CCl)OP(=O)(OC(C)CCl)OC(C)CCl (stereo unspecified)

>  <QUALITATIVE LABEL>
inactive

$$$$
>  <COMPOUND>
ClCc1ccccc1

>  <QUALITATIVE LABEL>
inactive

$$$$
>  <COMPOUND>
Nc1ccccc1Cl

>  <QUALITATIVE LABEL>
inactive

$$$$
>  <COMPOUND>
CCCCCCCCCCC1CO1 (stereo unspecified)

>  <QUALITATIVE LABEL>
inactive

$$$$
>  <COMPOUND>
CCOP(=O)(NC(C)C)Oc1ccc(SC)c(C)c1 (stereo unspecified)

>  <QUALITATIVE LABEL>
inactive

$$$$
>  <COMPOUND>
CC1OC1C (stereo unspecified)

>  <QUALITATIVE LABEL>
inactive

$$$$
>  <COMPOUND>
S=[Se]

>  <QUALITATIVE LABEL>
inactive

$$$$
>  <COMPOUND>
CC(C)CCCCCOC(=O)C[S][Sn]([CH3])([S]CC(=O)OCCCCCC(C)C)[S]CC(=O)OCCCCCC(C)C

>  <QUALITATIVE LABEL>
inactive

$$$$
